Tested on: Tetranychus urticae
Test: Acaricidal activity against Tetranychus urticae (two-spotted spider mite) infested kidney bean leaf assessed as mortality at 50 ppm after 5 days
Assay type: functional
Settings: 120 h
measurementName: mortality at 50 ppm (%)
Give bare numbers, in %.

What does the data say about its mortality at 50 ppm? Entry: Cn1nc2c(c1C(=O)NCc1ccc(C(C)(C)C)cc1)CCCC2
1

# return mortality at 50 ppm for each item in the list
1. CC(C)(C)c1ccc(CNC(=O)c2c3c(nn2-c2ccccc2)CCC3)cc1
2. CC1CCCc2c1nn(C)c2C(=O)NCc1ccc(C(C)(C)C)cc1 (stereo unspecified)
3. Cn1nc2c(c1C(=S)NCc1ccc(C(C)(C)C)cc1)CCC2

1. 0
2. 0
3. 0

# return mortality at 50 ppm for each item in the list
1. Cn1nc2c(c1C(=O)NCc1ccccc1)CCC2
2. CC(C)(C)c1ccc(CNC(=O)c2[nH]nc3c2CCC3)cc1
3. Cn1nc2c(c1C(=O)NCCc1ccc(C(C)(C)C)cc1)CCC2

1: 0; 2: 0; 3: 0

# return mortality at 50 ppm for each item in the list
1. CCC1CCc2c1nn(C)c2C(=O)NCc1ccc(C(C)(C)C)cc1 (stereo unspecified)
2. CC1CCc2c1nn(C)c2C(=O)NCc1ccc(C(C)(C)C)cc1 (stereo unspecified)
3. CCCCn1nc2c(c1C(=O)NCc1ccc(C(C)(C)C)cc1)CCC2

1: 0; 2: 3; 3: 0

What does the data say about its mortality at 50 ppm? Entry: Cn1nc2c(c1C(=O)OCc1ccc(C(C)(C)C)cc1)CCC2
0
